Reported melting point values are given for each entry in this list.
Experimental Endpoint: melting point

> print(dat)
                                   compound  recorded.measurement
1  COc1cccc2c1OC(C(C)C)C2=O (stereo not drawn)           46 to 47 °C
2  O=S(=O)(NCCCCOc1ccc(-n2cnnn2)cc1)c1ccc(Br)cc1         109 to 110 °C
3         O=C1c2ccccc2C(=O)N1Cc1ccc(I)cc1Cl         140 to 142 °C

###

Experimental Endpoint: melting point

> print(dat)
                                    molecule  recorded.measurement
 1  COC(=O)C(C)Oc1ccc(NC(=O)CCCCCOCc2ccccc2)cc1 (centres undefined)         73 to 76.5 °C
 2  COCCOCC(=O)N1CCC(Oc2cc3ncnc(Nc4cccc(Cl)c4F)c3cc2OC)CC1         110 to 111 °C
 3  CCOC(=O)c1cn(-c2nc(N)c(Cl)cc2F)c2c(Cl)c(F)c(F)cc2c1=O         186 to 189 °C
 4  Cc1ccc(-c2cncc(OC3SCC(O)C(O)C3O)c2)o1 (centres undefined)                188 °C
 5  CCON=C1CN(c2c(F)c(N)c3c(=O)c(C(=O)O)cn(C4CC4)c3c2F)CC12CN(C(=O)OC(C)(C)C)C2         235 to 236 °C
 6          CC(=O)c1ccc2c(c1)c1ccccc1n2CCCCl         109 to 111 °C
 7  COC(=O)C(CCCCNC(=O)OCc1ccccc1)NC(=O)CCC(C)C1CCC2C3C(O)CC4CC(O)CCC4(C)C3CC(O)C12C (centres undefined)           80 to 83 °C
 8             CN1C(=O)CCC(C)(C)c2cc(N)ccc21         119 to 122 °C
 9            CC(=O)Nc1ccc(C(=O)c2ccncc2)cc1                215 °C
10  COc1ccc(-c2ccc3nn(-c4cc(C(C)(C)CC(C)(C)C)cc(C(C)(C)c5ccccc5)c4O)nc3c2)cc1         129 to 131 °C
11  COC(=O)[C@H](Cc1ccc([N+](=O)[O-])cc1)NC(=O)C1(CCCCS(C)(=O)=O)CCCC1           40 to 44 °C
12  CN(C)S(=O)(=O)n1cc(-c2ccc(Cl)cc2Cl)nc1C(N)=S         184 to 187 °C
13             CC(C)(C)OC(=O)c1ccc(O)c(Br)c1         106 to 108 °C
14           Cc1ccnc2c1C(=O)c1nccc(Cl)c1C2=O              > 300 °C

###

Reported melting point values are given for each entry in this list.
Experimental Endpoint: melting point

> print(dat)
                                   compound  recorded.measurement
1  CCn1c(=O)c2nc(-c3ccc(/C=C/C(=O)O)cc3)[nH]c2n(CC)c1=O              > 360 °C
2  CC(CN1CC=C(c2ccc(Cl)cc2)CC1)C(O)c1ccccc1 (centres undefined)         103 to 105 °C
3  NC(Cc1c[nH]c2c(F)cccc12)C(=O)O (centres undefined)         256 to 261 °C
4    O=C(O)c1cc2c(c(-c3ccccc3)c1)C(=O)OC2=S         237 to 247 °C
5   Cc1cc(OCc2ccccc2)cc2nc(OC(C)C)oc(=O)c12         137 to 138 °C
6         N#Cc1cc(F)c(NC(=O)C(F)(F)F)c(F)c1         134 to 135 °C
7  Nc1sc(-c2ccc(Cl)s2)c(CN(C2CCCCC2)C2CCCCC2)c1C(=O)c1ccc(Cl)cc1         195 to 197 °C
8  COCCN(C)CCc1c(-c2ccc(N)cc2)sc2c1c(=O)n(-c1ccc3c(c1)OCO3)c(=O)n2Cc1c(F)cccc1F         200 to 202 °C
9             CC(=O)COc1ccc2c(C)cc(=O)oc2c1         146 to 148 °C

###

Reported melting point values are given for each entry in this list.
Experimental Endpoint: melting point

> print(dat)
                                    compound  recorded.measurement
 1     O=C(Cn1c(-c2ccc(F)cc2)nc2cccnc21)OCCO         166 to 168 °C
 2               O=C1CCSc2cc(-c3ccccc3)ccc21           85 to 87 °C
 3  CCCc1nc(C#N)c(C#N)n1C(c1ccccc1)(c1ccccc1)c1ccccc1                107 °C
 4    N#Cc1ccc(Nc2nc(Cl)ccc2[N+](=O)[O-])cc1         175 to 178 °C
 5                         N#CCSC(=O)c1ccco1           76 to 78 °C
 6  COC(=O)c1c(NC(C)=O)sc2c1CCC(C(C)(C)C)C2 (stereo not drawn)         117 to 118 °C
 7  NC1CCCCCCCCCCC(=O)N1 (single isomer, unassigned; (-))         128 to 130 °C
 8                  Brc1ccc(-c2csc(Br)n2)cc1         117 to 119 °C
 9  CNC(=O)c1cc(C(=O)O)c2cc(Cc3ccc(F)cc3)cnc2c1O         203 to 205 °C
10                       COc1cc(C#N)ccc1C=NO         170 to 171 °C
11  CC(C)c1ccc(C2COc3ccc(NC(=O)CC(C)(C)C)cc32)cc1 (stereo not drawn)         119 to 120 °C
12  CCOc1cc(Cc2cnc(N)nc2N)cc2c1OC(C)(C)C=C2C(C)(O)CC (stereo not drawn)         127 to 128 °C
13  CCOC(=O)C(=O)c1cn(CCCNC(=O)OC(C)(C)C)c2ccccc12           89 to 90 °C
14  O=C1Nc2ccccc2C1CCCCN1CCN(c2cccc(Cl)c2)CC1 (stereo not drawn)         112 to 114 °C
15                          N#CC(=NO)c1cccs1         103 to 104 °C
16  CN(C)C(=O)NC1CCCc2sccc21 (stereo not drawn)         117 to 120 °C
17  CCCCCCCCCCCCCCOc1ccc(C(=O)N(CC(=O)OC)CC(=O)OC)cc1OCCCCCCCCCCCCCC           70 to 71 °C
18  O=c1[nH]c2cc(Cl)cc(Cl)c2c(O)c1Sc1ccc(OCc2ccccc2)cc1         224 to 227 °C

###

Experimental Endpoint: melting point

> print(dat)
                                 mol.smiles  experimental.endpoint  recorded.measurement
1                    CN(C)C=CC(=O)CC(C)(C)C          melting point           72 to 74 °C
2            Cc1c2n(c(=O)c3c(O)cccc13)CCCS2          melting point         110 to 112 °C
3  CCC(CC)Nc1nc(C)nc(Nc2c(C)cc(C)nc2C)c1[N+](=O)[O-]          melting point         151 to 152 °C
4  Cc1nc(-n2ccc(OCc3ccccc3)cc2=O)sc1C(=O)NCc1ccc(F)c(F)c1          melting point         225 to 227 °C

###

Reported melting point values are given for each entry in this list.
Experimental Endpoint: melting point

> print(dat)
                                   compound  recorded.measurement
1  COc1cc(C(=O)N(C(C)C)C2CCCCC2)ccc1Cn1ccc2ncnc-2c1C         185 to 187 °C
2  COc1cc(S(C)=O)ccc1-c1nc2ncc(O)cc2[nH]1 (stereo not drawn)         220 to 223 °C
3                  CS(=O)(=O)c1ccc(OCCO)cc1           89 to 90 °C

###

Reported melting point values are given for each entry in this list.
Experimental Endpoint: melting point

> print(dat)
                                    compound  recorded.measurement
 1  NCCCn1ccc2cc(NC(=O)c3nc4ccc(Cl)cc4n3Cc3ccccc3)ccc21         106 to 108 °C
 2           C=CCN(C)C(=O)Nc1cc(C(C)(C)C)on1           90 to 91 °C
 3  O=C(O)CCC1(CCC(=O)O)CC(=O)c2ccc(OCCCOc3ccccc3)cc2O1         132 to 133 °C
 4            Cc1nc(CCCCCCC(=O)O)c(C(=O)O)s1         147 to 149 °C
 5              N#Cc1cccc(C[C@H](N)C(=O)O)c1         248 to 250 °C
 6         O=C(O)c1oc(=O)c2ncccc2c1-c1ccccc1         288 to 290 °C
 7  CCN1CCNC(=O)C1c1ccc(Nc2nc(Br)cn(C)c2=O)cc1 (stereo unspecified)         152 to 153 °C
 8  C[C@H](NC1=NC=NC(N)(Cl)N1)c1ccccc1 (stereo partly specified)         163 to 164 °C
 9  COC1CN(C(=O)c2cnn(C)c2C(=O)Nc2ccn3nc(-c4ccccc4)nc3c2)C1         269 to 270 °C
10  CC1CCc2ncc(C(=O)NN)c(=O)n21 (stereo unspecified)         136 to 137 °C
11             COC(=O)c1ccc2[nH]cc(CC#N)c2c1         127 to 129 °C
